Hello, the source for this data is patent US20100267712A1, in case you need it.

- Tested on: SMN2-linked luciferase-reporter gene construct
- ASSAY COMMENT: SMN Splice Reporter Assay (SMN2-linked luciferase reporter)
- Type: cell-based
- SETUP CONDITIONS: fold-increase of luciferase over baseline reading of transformed cells without any test compound
Entries and their Fold Increase
The response must contain the number and no unit.

Example entries and their recorded answers appear below.
[[record]]
compound = "CCCCOc1ccc2c(c1)C(=O)N(c1ccc3sccc3c1)C2"
measured_value = 1.202

[[record]]
compound = "Cn1ccc2cc(N3Cc4ccc(OC(F)(F)C(F)Cl)cc4C3=O)ccc21 (stereo not drawn)"
measured_value = 1.64

[[record]]
compound = "Cc1cc2ccc(N3Cc4ccc(O)cc4C3=O)cc2n1C"
measured_value = 1.401

[[record]]
compound = "Cc1cc2cc(N3Cc4ccc(N(C)C)cc4C3=O)ccc2n1C(C)C"
measured_value = 1.139


Given COc1ccc2c(c1)C(=O)N(c1ccc3c(c1)OCCO3)C2 , state its recorded Fold Increase.
1.228

So what does the record say about Fold Increase for COc1ccc2c(c1)C(=O)N(c1ccc3c(c1)n(C)c(=O)n3C)C2 ?
1.234

I'd like to know its Fold Increase. The compound in question is O=C1c2cc(OC(F)F)ccc2CN1c1ccc2c(ccn2C(F)F)c1
1.221

I'd like to know its Fold Increase. The compound in question is COc1ccc2c(c1)C(=O)N(c1ccc3nc(N(C)C)ccc3c1)C2
1.272

Given the compound Cn1ccc2cc(N3Cc4ccc(NS(C)(=O)=O)cc4C3=O)ccc21 , what is its reported Fold Increase?
1.534

So what's the measured Fold Increase for this one? COc1ccc2c(c1)C(=O)N(c1ccc3c(c1)cc(C(=O)N1CCCC1)n3C)C2
1.124

Could you tell me which Fold Increase is on file for CCCc1ccc2c(c1)C(=O)N(c1ccc3c(c1)cc(C)n3C(C)C)C2 ?
1.027

Recorded Fold Increase of CN(C)c1ccc2c(c1)C(=O)N(c1ccc3ccn(C)c3c1)C2 , please.
1.689
